Below, each entry is listed alongside its reported IC50.
target of assay: RORβ (Rattus norvegicus, UniProt P45446)
Construct: rRORβ (Pro 205-end); expressed in transfected cells
Sequence (P45446 216-470): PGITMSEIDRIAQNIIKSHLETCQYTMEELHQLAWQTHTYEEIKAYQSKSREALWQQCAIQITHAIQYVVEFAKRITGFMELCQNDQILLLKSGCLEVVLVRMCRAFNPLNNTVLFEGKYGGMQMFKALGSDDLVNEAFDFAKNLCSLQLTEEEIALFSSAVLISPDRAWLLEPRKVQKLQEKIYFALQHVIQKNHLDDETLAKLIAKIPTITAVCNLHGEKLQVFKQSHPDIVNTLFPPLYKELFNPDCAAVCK
measurement notes: Gal4-RORβ-LBD UAS-luciferase reporter assay in TRex-CHO-K1 cells (doxycycline-stimulated)
Type: cell-based
protocol conditions: Figure 6, confirmatory experiment, N = 4; read-out: RORβ : IC50
API: value field is a number in µM; no unit string.

- compound: "CCOc1ccc(C[C@H]2CN=C(NC(=O)C(CC)c3ccccc3)N2CCC2CC3CCC2C3)cc1 (some centres unmarked) [2520.47]"
  target of assay: "RORβ (Rattus norvegicus, UniProt P45446)"
  display unit: "µM"
  IC50: 6.6

# next compound below
q: State, for RORβ (Rattus norvegicus, UniProt P45446), measured IC50 of the compound listed here: CCOc1ccc(C[C@H]2CN=C(NC(=O)C(CC)c3ccccc3)N2CC2CCCCC2)cc1 (some centres unmarked) [2520.39]
a: 5.3

---

target of assay: RORγ (Mus musculus, UniProt P51450)
Construct: mRORγ (Pro-261-end); expressed in transfected cells
Sequence (P51450 261-516 limits assumed): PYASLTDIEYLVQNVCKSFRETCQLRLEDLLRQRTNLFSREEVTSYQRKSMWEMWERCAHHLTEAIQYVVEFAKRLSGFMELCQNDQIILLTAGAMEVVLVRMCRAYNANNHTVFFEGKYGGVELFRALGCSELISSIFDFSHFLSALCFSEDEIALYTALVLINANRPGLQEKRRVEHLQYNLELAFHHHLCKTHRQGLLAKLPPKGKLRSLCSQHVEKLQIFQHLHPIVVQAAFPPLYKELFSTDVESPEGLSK
measurement notes: Gal4-RORγ-LBD UAS-luciferase reporter assay in TRex-CHO-K1 cells (doxycycline-stimulated)
Assay type: cell-based
protocol conditions: library 2520, RORγ cells
assay readout: % Inhibition at 4 μM (N=3) (%)
API: value field is a number in %; no unit string.

Please review the following examples before continuing.
- molecule: "CC(C)C(=O)NC1=NCC(Cc2ccccc2)N1CCC1CC2CCC1C2 (mixture of isomers) [2520.32]"
  readout value: 36.0
- molecule: "CCC(C(=O)NC1=NCC(Cc2ccc3ccccc3c2)N1CCC(C)c1ccccc1)c1ccccc1 (mixture of isomers) [2520.07]"
  readout value: -32.2
- molecule: "CCC(C(=O)NC1=NCC(Cc2ccc3ccccc3c2)N1CC1CCCCC1)c1ccccc1 (mixture of isomers) [2520.03]"
  readout value: -31.8
- molecule: "CCC(C(=O)NC1=NCC(Cc2ccc3ccccc3c2)N1CCC1CC2CCC1C2)c1ccccc1 (mixture of isomers) [2520.11]"
  readout value: 67.6
- molecule: "CC(C)C(=O)NC1=NC[C@H](Cc2ccccc2)N1CC1CCCCC1 [2520.36]"
  readout value: -5.4

q: State, for RORγ (Mus musculus, UniProt P51450), measured % Inhibition at 4 μM (N=3) of the molecule listed here: CCC(C(=O)NC1=NCC(Cc2ccccc2)N1CCC1CC2CCC1C2)c1ccccc1 (mixture of isomers) [2520.35]
a: -21.7

q: State, for RORγ (Mus musculus, UniProt P51450), measured % Inhibition at 4 μM (N=3) of the molecule listed here: CC[C@H](C)[C@H]1CN=C(NC(=O)Cc2ccc(OC)cc2)N1CC1CCCCC1 [2520.18]
a: 26.2

q: State, for RORγ (Mus musculus, UniProt P51450), measured % Inhibition at 4 μM (N=3) of the molecule listed here: CC(C)C(=O)NC1=NC[C@H](Cc2ccc3ccccc3c2)N1CC1CCCCC1 [2520.12]
a: 30.4

q: State, for RORγ (Mus musculus, UniProt P51450), measured % Inhibition at 4 μM (N=3) of the molecule listed here: CCOc1ccc(CC2CN=C(NC(=O)C(C)C)N2CCC(C)c2ccccc2)cc1 (mixture of isomers) [2520.40]
a: -8.1

q: State, for RORγ (Mus musculus, UniProt P51450), measured % Inhibition at 4 μM (N=3) of the molecule listed here: CCC(C(=O)NC1=NCC(C(C)CC)N1CCC1CC2CCC1C2)c1ccccc1 (mixture of isomers) [2520.23]
a: 35.9

q: State, for RORγ (Mus musculus, UniProt P51450), measured % Inhibition at 4 μM (N=3) of the molecule listed here: CCC(C)C1CN=C(NC(=O)C(C)C)N1CCC1CC2CCC1C2 (mixture of isomers) [2520.20]
a: 13.3

q: State, for RORγ (Mus musculus, UniProt P51450), measured % Inhibition at 4 μM (N=3) of the molecule listed here: CCOc1ccc(C[C@H]2CN=C(NC(=O)C(C)C)N2CC2CCCCC2)cc1 [2520.48]
a: 69.2

q: State, for RORγ (Mus musculus, UniProt P51450), measured % Inhibition at 4 μM (N=3) of the molecule listed here: COc1ccc(CC(=O)NC2=NC[C@H](Cc3ccccc3)N2CC2CCCCC2)cc1 [2520.30]
a: -4.8

q: State, for RORγ (Mus musculus, UniProt P51450), measured % Inhibition at 4 μM (N=3) of the molecule listed here: CCOc1ccc(CC2CN=C(NC(=O)C(C)C)N2CCC2CC3CCC2C3)cc1 (mixture of isomers) [2520.44]
a: -20.0

q: State, for RORγ (Mus musculus, UniProt P51450), measured % Inhibition at 4 μM (N=3) of the molecule listed here: CCOc1ccc(C[C@H]2CN=C(NC(=O)Cc3ccc(OC)cc3)N2CC2CCCCC2)cc1 [2520.42]
a: 96.5

q: State, for RORγ (Mus musculus, UniProt P51450), measured % Inhibition at 4 μM (N=3) of the molecule listed here: CCOc1ccc(CC2CN=C(NC(=O)Cc3ccc(OC)cc3)N2CCC2CC3CCC2C3)cc1 (mixture of isomers) [2520.38]
a: -22.6

---

target of assay: RORγ (Mus musculus, UniProt P51450)
Construct: mRORγ (Pro-261-end); expressed in transfected cells
measurement notes: Gal4-RORγ-LBD UAS-luciferase reporter assay in TRex-CHO-K1 cells (doxycycline-stimulated)
Assay type: cell-based
protocol conditions: individual controls 1295.201-307, 5 μg/ml, triplicate
assay readout: % Inhibition RORγ 5 μg/ml (%)
API: value field is a number in %; no unit string.

Please review the following examples before continuing.
- compound: "O=C(Cc1ccccc1)NC1=NC[C@H](Cc2ccccc2)N1CCc1ccc(Br)cc1"
  % Inhibition RORγ 5 μg/ml [%]: 67.1
- compound: "O=C(Cc1ccccc1)NC1=NC[C@@H](Cc2ccc3ccccc3c2)N1CCc1ccccc1"
  % Inhibition RORγ 5 μg/ml [%]: 22.4
- compound: "CCCCCCC(=O)NC1=NC[C@H](Cc2ccccc2)N1CCc1ccccc1"
  % Inhibition RORγ 5 μg/ml [%]: 44.3
- compound: "O=C(Cc1ccccc1)NC1=NC[C@H](CC2CCCCC2)N1CCc1ccccc1"
  % Inhibition RORγ 5 μg/ml [%]: 3.4
- compound: "COc1ccc(CC(=O)NC2=NC[C@H](Cc3ccccc3)N2CCc2ccccc2)cc1"
  % Inhibition RORγ 5 μg/ml [%]: 52.6
- compound: "CC(C)CCN1C(NC(=O)Cc2ccccc2)=NC[C@@H]1Cc1ccccc1"
  % Inhibition RORγ 5 μg/ml [%]: -28.5
- compound: "COc1ccc(CC(=O)NC2=NC[C@H](Cc3ccccc3)N2CCc2ccccc2)cc1OC"
  % Inhibition RORγ 5 μg/ml [%]: 54.7
- compound: "O=C(Cc1ccccc1)NC1=NC[C@H](Cc2ccccc2)N1CCCCc1ccccc1"
  % Inhibition RORγ 5 μg/ml [%]: -2.3

q: Supply reported % Inhibition RORγ 5 μg/ml belonging to this compound: O=C(Cc1ccccc1)NC1=NC[C@H](Cc2ccccc2)N1CC1CCCC1
a: 99.6

q: Supply reported % Inhibition RORγ 5 μg/ml belonging to this compound: O=C(CCCc1ccccc1)NC1=NC[C@H](Cc2ccccc2)N1CCc1ccccc1
a: 60.2

q: Supply reported % Inhibition RORγ 5 μg/ml belonging to this compound: CC(C)(C)[C@@H]1CN=C(NC(=O)Cc2ccccc2)N1CCc1ccccc1
a: 8.2

q: Supply reported % Inhibition RORγ 5 μg/ml belonging to this compound: CC(C)[C@H]1CN=C(NC(=O)Cc2ccccc2)N1CCc1ccccc1
a: 32.7

q: Supply reported % Inhibition RORγ 5 μg/ml belonging to this compound: CC(C)Cc1ccc(C(C)C(=O)NC2=NCC(Cc3ccccc3)N2CCc2ccccc2)cc1 (mixture of isomers)
a: 58.6

q: Supply reported % Inhibition RORγ 5 μg/ml belonging to this compound: O=C(Cc1ccccc1)NC1=NC[C@@H](Cc2ccccc2)N1CCc1ccccc1
a: 46.8

---

target of assay: RORγ (Mus musculus)
Construct: mRORγ (Pro-261-end); expressed in transfected cells
measurement notes: Gal4-RORγ-LBD UAS-luciferase reporter assay in TRex-CHO-K1 cells (doxycycline-stimulated)
Format: cell-based
protocol conditions: RORγ : IC50, Figure 6, confirmatory experiment, N = 4
Below, each entry is listed alongside its reported pIC50.
The value called pIC50 is obtained by taking minus log10 of the concentration in mol/L.

Please review the following examples before continuing.
- molecule: "CCOc1ccc(C[C@H]2CN=C(NC(=O)C(CC)c3ccccc3)N2CCC2CC3CCC2C3)cc1 (stereo partly drawn)"
  readout value: 5.34
- molecule: "CCC(C(=O)NC1=NC[C@H](Cc2ccccc2)N1CCC(C)c1ccccc1)c1ccccc1 (stereo partly drawn)"
  readout value: 5.41

# next molecule below
q: Supply reported pIC50 belonging to this molecule: CCOc1ccc(C[C@H]2CN=C(NC(=O)C(CC)c3ccccc3)N2CC2CCCCC2)cc1 (stereo partly drawn)
a: 5.37
